pIC50: −log10 of the molar value.
// read-out pIC50, gathered for UniProt:P04626 from published studies
ASSAY_READOUT: pIC50

[[record]]
molecule = "CN1C[C@@H](OC(=O)N2CCC2)C[C@H](C(=O)NO)[C@H]1C(=O)N1CCN(c2ccccc2)CC1"
value_measured = 7.35

[[record]]
molecule = "C[C@H](N)C#Cc1cc2ncnc(Nc3ccc(OCc4cccc(F)c4)c(Cl)c3)c2s1"
value_measured = 7.57

[[record]]
molecule = "COC(=O)N1C[C@@H](OC(=O)N2CCCC2)C[C@H](C(=O)NO)[C@H]1C(=O)N1CCN(c2ccccc2)CC1"
value_measured = 8.09

[[record]]
molecule = "O=C(NO)[C@H]1CC(OC(=O)N2CCCC2)CN[C@@H]1C(=O)N1CC[C@H](c2ccccc2)C1 (stereo partly drawn)"
value_measured = 7.55

[[record]]
molecule = "O=C(NO)[C@H]1C[C@H](OC(=O)N2CCCC2)CN[C@@H]1C(=O)N1CC=C(c2ccccc2)C1"
value_measured = 7.96

[[record]]
molecule = "CC(C)OC(=O)N(C)C1CN[C@H](C(=O)N2CC=C(c3ccccc3)CC2)[C@@H](C(=O)NO)C1 (stereo partly drawn)"
value_measured = 8.07

[[record]]
molecule = "N#Cc1c(-c2ccc(F)cc2)cc(-c2ccc(Nc3ncnc4ccccc34)cc2)[nH]c1=N"
value_measured = 5.40

[[record]]
molecule = "Cc1cc(Nc2ncnc3cnc(N4C[C@H]5CC[C@@H]4CO5)nc23)ccc1Oc1ccn2ncnc2c1"
value_measured = 6.94

